Cited source for all entries: patent US20060281687A1

Recorded IC50 by entry
system: CDK2/cyclin A (Homo sapiens, UniProt P20248)
assay.protocol: Functional kinase assay (phosphorylation of GST-pRb(773-928))
Format: biochemical
particulars: recombinant human CDK2/cyclin A; GST-pRb(773-928) substrate; 100 μM ATP; 30 min at 30° C.; read-out: Inhibitory activity IC50 ± SD, Functional kinase assay
Non-standard residues stand in square brackets, D forms with d. Residues, ends and D or L forms follow the SMILES beside them. *: point of attachment. X3 = Cc1nc(C(=O)*)nn1-c1ccc([N+](=O)[O-])cc1; X2 = CC(C)n1c(C(F)(F)F)nc2cc(C(=O)*)ccc21; Phe(4-F) = N[C@@H](Cc1ccc(F)cc1)C(=O)O; X13 = Cc1nc(C(=O)*)nn1-c1ccc(Cl)cc1Cl; X1 = Cc1nc(C(=O)*)nn1-c1ccc(F)cc1
Your answer should be a plain number; it is taken to be in µM.

# molecule, units.of.measure, IC50
data = [
    ("Cc1nc(C(=O)N[C@@H](CCCNC(=N)N)C(=O)N[C@@H](CC(C)C)C(=O)N[C@@H](CC(N)=O)C(=O)N[C@@H](Cc2ccc(F)cc2)C(N)=O)nn1-c1ccc(F)cc1 [Compound 6] (X1-RLN[Phe(4-F)]-NH2)", "µM", 4.4),
    ("Cc1nc(C(=O)N[C@@H](CCCNC(=N)N)C(=O)N[C@@H](CC(C)C)C(=O)N[C@@H](CC(N)=O)C(=O)N[C@@H](Cc2ccc(F)cc2)C(N)=O)nn1-c1ccc(Cl)cc1Cl [Compound 4] (X13-RLN[Phe(4-F)]-NH2)", "µM", 6.4),
    ("CC(C)C[C@H](NC(=O)[C@H](CCCNC(=N)N)NC(=O)c1ccc2c(c1)nc(C(F)(F)F)n2C(C)C)C(=O)N[C@@H](CC(N)=O)C(=O)N[C@@H](Cc1ccc(F)cc1)C(N)=O [Compound 13] (X2-RLN[Phe(4-F)]-NH2)", "µM", 21.1),
]

# next molecule below
Input: Write down the reported IC50 of Cc1nc(C(=O)N[C@@H](CCCNC(=N)N)C(=O)N[C@@H](CC(C)C)C(=O)N[C@@H](CC(N)=O)C(=O)N[C@@H](Cc2ccc(F)cc2)C(N)=O)nn1-c1ccc([N+](=O)[O-])cc1 [Compound 7] (X3-RLN[Phe(4-F)]-NH2) , test system: CDK2/cyclin A (Homo sapiens, UniProt P20248).
Output: 5.4
